- measurement.protocol: Rat pharmacokinetic study (intravenous and oral)
- Assay type: in vivo
- study.conditions: male, rat, plasma; Sprague-Dawley rats, oral, 10 mg/kg, solution
property.measured: Cmax (ng/mL)

[
  {
    "substance.smiles": "C[C@@H](C#N)NC(=O)c1ccc(-c2nc(Nc3cnn(C4CCOCC4)c3)ncc2Cl)cc1",
    "endpoint.result": 346
  }
]

###

- system.tested: JAK2 (Homo sapiens, UniProt O60674)
- Construct: purchased Carna Biosciences
- Sequence (O60674 whole entry): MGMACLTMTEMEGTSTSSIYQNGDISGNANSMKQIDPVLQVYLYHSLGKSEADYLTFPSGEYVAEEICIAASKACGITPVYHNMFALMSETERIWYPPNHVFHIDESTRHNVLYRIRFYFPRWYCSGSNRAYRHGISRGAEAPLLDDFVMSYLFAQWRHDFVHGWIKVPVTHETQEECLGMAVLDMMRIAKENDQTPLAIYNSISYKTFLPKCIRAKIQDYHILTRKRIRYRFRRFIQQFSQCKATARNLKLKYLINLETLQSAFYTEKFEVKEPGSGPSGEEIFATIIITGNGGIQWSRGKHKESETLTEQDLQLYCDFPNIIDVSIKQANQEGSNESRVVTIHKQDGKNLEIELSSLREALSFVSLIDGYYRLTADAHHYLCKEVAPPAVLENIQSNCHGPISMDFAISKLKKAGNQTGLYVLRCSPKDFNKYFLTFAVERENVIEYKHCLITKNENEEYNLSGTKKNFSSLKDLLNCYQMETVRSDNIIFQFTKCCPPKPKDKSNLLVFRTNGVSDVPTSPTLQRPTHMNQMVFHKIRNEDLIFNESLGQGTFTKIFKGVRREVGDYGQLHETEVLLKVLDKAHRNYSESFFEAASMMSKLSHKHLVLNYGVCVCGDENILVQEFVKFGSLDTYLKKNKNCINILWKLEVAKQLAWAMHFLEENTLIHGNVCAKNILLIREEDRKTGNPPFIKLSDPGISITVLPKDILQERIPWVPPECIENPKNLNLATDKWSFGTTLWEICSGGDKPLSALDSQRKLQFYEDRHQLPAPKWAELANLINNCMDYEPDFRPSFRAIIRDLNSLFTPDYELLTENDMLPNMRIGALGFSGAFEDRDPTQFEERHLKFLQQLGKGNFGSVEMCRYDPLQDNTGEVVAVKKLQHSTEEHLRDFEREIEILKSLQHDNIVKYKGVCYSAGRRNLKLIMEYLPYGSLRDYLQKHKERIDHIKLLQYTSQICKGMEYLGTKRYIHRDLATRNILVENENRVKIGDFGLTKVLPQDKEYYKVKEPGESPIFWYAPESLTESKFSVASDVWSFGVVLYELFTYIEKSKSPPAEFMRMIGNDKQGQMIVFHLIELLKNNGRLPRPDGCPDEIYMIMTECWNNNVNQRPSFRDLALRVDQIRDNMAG
- measurement.protocol: JAK2 microfluidic kinase assay (Caliper EZ Reader II, FAM labeled peptide substrate)
- Format: biochemical
- study.conditions: IC50 JAK2 ([…]) (Km ATP), Km ATP

[
  {
    "substance.smiles": "Cc1cnc(Nc2cnn(C3CC3)c2)nc1-c1ccc(C(=O)N[C@@H](C)C#N)c(F)c1",
    "system.tested": "JAK2 (Homo sapiens, UniProt O60674)",
    "value.units": "nM",
    "rel": "=",
    "IC50": 1.6
  },
  {
    "substance.smiles": "Cc1cnc(Nc2cnn(C)c2)nc1-c1ccc(C(=O)NCC#N)cc1",
    "system.tested": "JAK2 (Homo sapiens, UniProt O60674)",
    "value.units": "nM",
    "rel": "=",
    "IC50": 1.3
  },
  {
    "substance.smiles": "Cc1cnc(Nc2cnn(C3CC3)c2)nc1-c1ccc(C(=O)NCC#N)c(F)c1",
    "system.tested": "JAK2 (Homo sapiens, UniProt O60674)",
    "value.units": "nM",
    "rel": "=",
    "IC50": 1.5
  },
  {
    "substance.smiles": "Cc1cnc(Nc2cnn(C3CC3)c2)nc1-c1ccc(C(=O)N2CC(C#N)C2)cc1",
    "system.tested": "JAK2 (Homo sapiens, UniProt O60674)",
    "value.units": "nM",
    "rel": "=",
    "IC50": 5.49
  },
  {
    "substance.smiles": "COc1cc(-c2nc(Nc3cnn(C)c3)ncc2C)ccc1C(=O)NCC#N",
    "system.tested": "JAK2 (Homo sapiens, UniProt O60674)",
    "value.units": "nM",
    "rel": "=",
    "IC50": 41
  },
  {
    "substance.smiles": "Cc1cnc(Nc2cnn(CC(F)F)c2)nc1-c1ccc(C(=O)NCC#N)cc1",
    "system.tested": "JAK2 (Homo sapiens, UniProt O60674)",
    "value.units": "nM",
    "rel": "=",
    "IC50": 1.97
  },
  {
    "substance.smiles": "Cc1cnc(Nc2cnn(C)c2)nc1-c1ccc(C(=O)NCCN(C)C)cc1",
    "system.tested": "JAK2 (Homo sapiens, UniProt O60674)",
    "value.units": "nM",
    "rel": "=",
    "IC50": 55.9
  },
  {
    "substance.smiles": "COCCNC(=O)c1ccc(-c2nc(Nc3cnn(C)c3)ncc2C)cc1",
    "system.tested": "JAK2 (Homo sapiens, UniProt O60674)",
    "value.units": "nM",
    "rel": "=",
    "IC50": 8.4
  },
  {
    "substance.smiles": "Cc1cnc(Nc2cnn(C3CCN(C(=O)NC(C)(C)C)CC3)c2)nc1-c1ccc(C(=O)NCC#N)cc1",
    "system.tested": "JAK2 (Homo sapiens, UniProt O60674)",
    "value.units": "nM",
    "rel": "<",
    "IC50": 0.25
  },
  {
    "substance.smiles": "Cc1cnc(Nc2cnn(C)c2)nc1-c1ccc(C(=O)N[C@H]2C[C@@H](C#N)C2)cc1",
    "system.tested": "JAK2 (Homo sapiens, UniProt O60674)",
    "value.units": "nM",
    "rel": "=",
    "IC50": 13.6
  },
  {
    "substance.smiles": "N#CC1CN(C(=O)c2ccc(-c3nc(Nc4cnn(C5CC5)c4)ncc3Cl)cc2F)C1",
    "system.tested": "JAK2 (Homo sapiens, UniProt O60674)",
    "value.units": "nM",
    "rel": "=",
    "IC50": 9.2
  },
  {
    "substance.smiles": "Cn1cc(Nc2ncc(F)c(-c3ccc(C(=O)NCC#N)c(F)c3)n2)cn1",
    "system.tested": "JAK2 (Homo sapiens, UniProt O60674)",
    "value.units": "nM",
    "rel": "=",
    "IC50": 22
  },
  {
    "substance.smiles": "Cc1cnc(Nc2cnn(C)c2)nc1-c1ccc(C(=O)NCCO)cc1",
    "system.tested": "JAK2 (Homo sapiens, UniProt O60674)",
    "value.units": "nM",
    "rel": "=",
    "IC50": 14
  },
  {
    "substance.smiles": "C[C@@H](C#N)NC(=O)c1ccc(-c2nc(Nc3cnn(C4CC4)c3)ncc2F)cc1F",
    "system.tested": "JAK2 (Homo sapiens, UniProt O60674)",
    "value.units": "nM",
    "rel": "=",
    "IC50": 19
  },
  {
    "substance.smiles": "N#CC1CN(C(=O)c2ccc(-c3nc(Nc4cnn(C5CC5)c4)ncc3F)cc2F)C1",
    "system.tested": "JAK2 (Homo sapiens, UniProt O60674)",
    "value.units": "nM",
    "rel": "=",
    "IC50": 53.5
  },
  {
    "substance.smiles": "CC(=O)N1CCC(n2cc(Nc3ncc(C)c(-c4ccc(C(=O)N5CC(C#N)C5)cc4)n3)cn2)CC1",
    "system.tested": "JAK2 (Homo sapiens, UniProt O60674)",
    "value.units": "nM",
    "rel": "=",
    "IC50": 2.6
  },
  {
    "substance.smiles": "Cn1cc(Nc2ncc(Cl)c(-c3ccc(C(=O)NCC#N)cc3)n2)cn1",
    "system.tested": "JAK2 (Homo sapiens, UniProt O60674)",
    "value.units": "nM",
    "rel": "=",
    "IC50": 0.7
  }
]

Where do the numbers come from? From patent US12595253B2.
